Experiment: Metabolic stability in 10% human plasma assessed as half life at pH 7.4 by RP-HPLC
Parameter: log10 of half-life. Scope: all listed entries.
measurementName: log10 of half-life (log10 of the value in min)

lineNotation	log10 of half-life
CCCCC(=O)O[C@@H]1CO[C@H]2[C@@H]1OC[C@@H]2OC(=O)c1ccccc1OC(C)=O	0.08
CC(=O)Oc1ccccc1C(=O)O[C@H]1CO[C@H]2[C@@H]1OC[C@H]2OC(=O)c1ccccc1C	0.32
CC(=O)Oc1ccccc1C(=O)O[C@H]1CO[C@H]2[C@@H]1OC[C@H]2OC(=O)c1snnc1C	0.59
CC(=O)Oc1ccccc1C(=O)O[C@H]1CO[C@H]2[C@@H]1OC[C@H]2OC(=O)c1ccncc1	0.57
CC(=O)Oc1ccccc1C(=O)O[C@H]1CO[C@H]2[C@@H]1OC[C@H]2OC(=O)c1ccccc1OC(=O)c1ccccc1	1.36
CCC(=O)O[C@@H]1CO[C@H]2[C@@H]1OC[C@@H]2OC(=O)c1ccccc1OC(C)=O	0.56
CC(=O)Oc1ccccc1C(=O)O[C@H]1CO[C@H]2[C@@H]1OC[C@H]2OC(=O)c1cnccc1Cl	0.59
CC(=O)Oc1ccccc1C(=O)O[C@H]1CO[C@H]2[C@@H]1OC[C@H]2OC(C)=O	0.56
CC(=O)Oc1ccccc1C(=O)O[C@H]1CO[C@H]2[C@@H]1OC[C@H]2OC(=O)CCO[N+](=O)[O-]	0.59
CC(=O)Oc1ccccc1C(=O)O[C@H]1CO[C@H]2[C@@H]1OC[C@H]2OC(=O)c1ccccc1O	0.69
CC(=O)Oc1ccccc1C(=O)O[C@H]1CO[C@H]2[C@@H]1OC[C@H]2OC(=O)c1cnoc1C	1.06
CC(=O)Oc1ccccc1C(=O)O[C@H]1CO[C@H]2[C@@H]1OC[C@H]2OC(=O)CO[N+](=O)[O-]	0.56
